Parameter: pEC50. Scope: all listed entries.
target: human TAS1R2-K689Q/TAS1R3-WT (Homo sapiens, UniProt Q7RTX0+Q8TE23, K689Q); experiment: Calcium mobilisation assay, TAS1R2 variant K689Q with TAS1R3-WT; details: "-": no activation, "nd": not determined
Sequence (Q8TE23 20-839 K689Q): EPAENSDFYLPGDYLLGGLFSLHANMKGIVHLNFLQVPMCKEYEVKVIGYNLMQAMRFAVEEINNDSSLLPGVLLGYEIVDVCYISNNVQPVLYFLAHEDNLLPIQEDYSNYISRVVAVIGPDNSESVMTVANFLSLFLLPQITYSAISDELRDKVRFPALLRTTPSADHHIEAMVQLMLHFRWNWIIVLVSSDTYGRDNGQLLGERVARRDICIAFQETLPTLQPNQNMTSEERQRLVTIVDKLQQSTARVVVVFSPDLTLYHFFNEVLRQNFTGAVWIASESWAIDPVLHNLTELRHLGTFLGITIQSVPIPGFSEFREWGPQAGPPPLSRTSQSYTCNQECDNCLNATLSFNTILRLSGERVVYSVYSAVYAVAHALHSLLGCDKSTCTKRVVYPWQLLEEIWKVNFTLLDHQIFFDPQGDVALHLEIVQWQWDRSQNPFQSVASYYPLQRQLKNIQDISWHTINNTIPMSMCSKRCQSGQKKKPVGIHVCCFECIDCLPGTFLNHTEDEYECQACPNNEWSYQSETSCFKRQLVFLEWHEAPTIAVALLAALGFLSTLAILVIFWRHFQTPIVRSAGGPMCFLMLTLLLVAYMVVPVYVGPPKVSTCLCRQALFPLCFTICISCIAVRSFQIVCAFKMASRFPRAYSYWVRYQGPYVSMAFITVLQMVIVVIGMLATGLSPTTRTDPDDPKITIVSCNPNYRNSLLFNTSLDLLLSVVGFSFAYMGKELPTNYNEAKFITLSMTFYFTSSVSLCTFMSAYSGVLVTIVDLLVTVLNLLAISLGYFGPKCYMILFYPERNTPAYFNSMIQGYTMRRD
Sequence (Q7RTX0 21-852): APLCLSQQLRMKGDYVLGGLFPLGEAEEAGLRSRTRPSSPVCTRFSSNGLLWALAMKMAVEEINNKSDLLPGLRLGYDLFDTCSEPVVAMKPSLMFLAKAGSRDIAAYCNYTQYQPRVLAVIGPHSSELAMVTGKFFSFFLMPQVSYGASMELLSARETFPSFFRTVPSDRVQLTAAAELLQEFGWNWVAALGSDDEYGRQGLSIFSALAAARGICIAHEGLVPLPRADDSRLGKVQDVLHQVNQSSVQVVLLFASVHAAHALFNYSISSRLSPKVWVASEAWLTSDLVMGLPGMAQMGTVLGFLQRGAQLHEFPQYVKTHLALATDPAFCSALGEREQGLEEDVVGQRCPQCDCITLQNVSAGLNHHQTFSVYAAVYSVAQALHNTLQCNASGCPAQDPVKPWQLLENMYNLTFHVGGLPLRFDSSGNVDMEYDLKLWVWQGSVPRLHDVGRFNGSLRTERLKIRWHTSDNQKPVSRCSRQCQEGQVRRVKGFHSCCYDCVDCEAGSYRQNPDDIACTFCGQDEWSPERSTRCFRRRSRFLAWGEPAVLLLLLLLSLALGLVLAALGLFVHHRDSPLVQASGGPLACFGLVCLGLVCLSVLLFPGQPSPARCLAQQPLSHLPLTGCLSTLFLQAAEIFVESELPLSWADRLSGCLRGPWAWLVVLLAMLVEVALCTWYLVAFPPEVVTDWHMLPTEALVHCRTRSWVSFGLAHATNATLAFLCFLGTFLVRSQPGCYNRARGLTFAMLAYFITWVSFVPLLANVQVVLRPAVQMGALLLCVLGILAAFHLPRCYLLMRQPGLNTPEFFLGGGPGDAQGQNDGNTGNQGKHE
Please note pEC50 is a logarithmic value: minus log10 of concentration in mol/L. Answer with that number alone.

MOLECULE	pEC50
OC[C@H]1O[C@H](O[C@]2(CCl)O[C@H](CCl)[C@@H](O)[C@@H]2O)[C@H](O)[C@@H](O)[C@H]1Cl	3.51
C[C@H](CC[C@@H](O[C@@H]1O[C@H](CO[C@@H]2O[C@H](CO)[C@@H](O)[C@H](O)[C@H]2O)[C@@H](O)[C@H](O)[C@H]1O[C@@H]1O[C@H](CO)[C@@H](O)[C@H](O)[C@H]1O)C(C)(C)O)[C@H]1CC[C@@]2(C)[C@@H]3CC=C4[C@@H](CC[C@H](O[C@@H]5O[C@H](CO[C@@H]6O[C@H](CO)[C@@H](O)[C@H](O)[C@H]6O)[C@@H](O)[C@H](O)[C@H]5O)C4(C)C)[C@]3(C)[C@H](O)C[C@]12C [Mogroside V, mogroside V]	4.24

**Query** Entry under review: COC(=O)[C@H](Cc1ccccc1)NC(=O)[C@H](CC(=O)O)NCCC(C)(C)C . Reported pEC50?
**Result** 5.45
